conditions: in ethyl acetate, 313.15 K

{"smiles.representation": "CCCc1ncc(C[n+]2ccccc2C)c(N)n1.Cl.[Cl-]", "solubility (mole fraction)": 0.00012}

###

conditions: in isobutanol, 273.15 K

{"smiles.representation": "CCCc1ncc(C[n+]2ccccc2C)c(N)n1.Cl.[Cl-]", "solubility (mole fraction)": "9.3e-06"}

###

settings: in ethyl acetate, 288.15 K
quantity.kind: solubility (mole fraction)

{"smiles.representation": "CCCc1ncc(C[n+]2ccccc2C)c(N)n1.Cl.[Cl-]", "observed.value": "5.26e-05"}

###

details: in acetone, 273.15 K
quantity.kind: solubility (mole fraction)

{"smiles.representation": "CCCc1ncc(C[n+]2ccccc2C)c(N)n1.Cl.[Cl-]", "quantity.kind": "solubility (mole fraction)", "observed.value": 0.000227}

###

details: in n-propanol, 308.15 K

{"smiles.representation": "CCCc1ncc(C[n+]2ccccc2C)c(N)n1.Cl.[Cl-]", "solubility (mole fraction)": 0.000124}

###

settings: in cyclohexanone, 293.15 K

{"smiles.representation": "CCCc1ncc(C[n+]2ccccc2C)c(N)n1.Cl.[Cl-]", "solubility (mole fraction)": 0.000252}

###

conditions: in 1,4-dioxane, 293.15 K
quantity.kind: solubility (mole fraction)

{"smiles.representation": "CCCc1ncc(C[n+]2ccccc2C)c(N)n1.Cl.[Cl-]", "quantity.kind": "solubility (mole fraction)", "observed.value": "7.08e-05"}

###

conditions: in ethyl acetate, 303.15 K

{"smiles.representation": "CCCc1ncc(C[n+]2ccccc2C)c(N)n1.Cl.[Cl-]", "solubility (mole fraction)": "8.91e-05"}

###

details: in ethanol, 288.15 K

{"smiles.representation": "CCCc1ncc(C[n+]2ccccc2C)c(N)n1.Cl.[Cl-]", "solubility (mole fraction)": 0.000124}

###

conditions: in cyclohexanone, 298.15 K

{"smiles.representation": "CCCc1ncc(C[n+]2ccccc2C)c(N)n1.Cl.[Cl-]", "solubility (mole fraction)": 0.000287}

###

settings: in acetone, 288.15 K
quantity.kind: solubility (mole fraction)

{"smiles.representation": "CCCc1ncc(C[n+]2ccccc2C)c(N)n1.Cl.[Cl-]", "quantity.kind": "solubility (mole fraction)", "observed.value": 0.000325}

###

conditions: in isopropanol, 278.15 K

{"smiles.representation": "CCCc1ncc(C[n+]2ccccc2C)c(N)n1.Cl.[Cl-]", "solubility (mole fraction)": "1.63e-05"}

###

conditions: in ethanol, 273.15 K

{"smiles.representation": "CCCc1ncc(C[n+]2ccccc2C)c(N)n1.Cl.[Cl-]", "solubility (mole fraction)": "5.33e-05"}

###

settings: in isopropanol, 288.15 K
quantity.kind: solubility (mole fraction)

{"smiles.representation": "CCCc1ncc(C[n+]2ccccc2C)c(N)n1.Cl.[Cl-]", "quantity.kind": "solubility (mole fraction)", "observed.value": "2.89e-05"}

###

conditions: in isobutanol, 298.15 K
quantity.kind: solubility (mole fraction)

{"smiles.representation": "CCCc1ncc(C[n+]2ccccc2C)c(N)n1.Cl.[Cl-]", "observed.value": "3.33e-05"}

###

conditions: in isobutanol, 288.15 K

{"smiles.representation": "CCCc1ncc(C[n+]2ccccc2C)c(N)n1.Cl.[Cl-]", "solubility (mole fraction)": "2.18e-05"}

###

conditions: in n-butanol, 303.15 K

{"smiles.representation": "CCCc1ncc(C[n+]2ccccc2C)c(N)n1.Cl.[Cl-]", "solubility (mole fraction)": "7.53e-05"}
